Just for reference, patent US20090298765A1 is where these values come from.

Reported values of Ca ion level-increasing activity (FLIPR) for individual entries
System: human OT7T175 (metastin receptor) (human, UniProt Q969F8 1-398)
Sequence (Q969F8 whole entry L364H): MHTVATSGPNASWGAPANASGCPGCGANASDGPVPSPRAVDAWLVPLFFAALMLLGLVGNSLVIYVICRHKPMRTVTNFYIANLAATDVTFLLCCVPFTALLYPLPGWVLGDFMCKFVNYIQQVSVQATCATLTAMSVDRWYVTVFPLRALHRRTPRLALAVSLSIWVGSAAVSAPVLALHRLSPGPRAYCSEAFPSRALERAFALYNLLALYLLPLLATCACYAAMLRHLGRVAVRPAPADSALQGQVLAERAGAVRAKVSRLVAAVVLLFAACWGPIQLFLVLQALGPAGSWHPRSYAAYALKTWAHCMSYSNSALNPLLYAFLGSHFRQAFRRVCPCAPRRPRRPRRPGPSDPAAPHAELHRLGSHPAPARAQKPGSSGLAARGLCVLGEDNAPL
Assay explanation: cell-based or functional assay
Non-standard residues stand in square brackets, D forms with d. No end group written: not given here. Arg(Me) = CNC(=N)NCCC[C@H](N)C(=O)O; Arg(n-Pr) = n-propylated arginine; azaGly = NNC(=O)O

Binder	Endpoint value
[dY]FNSF[azaGly]L[Arg(Me)]F-NH2 (N-terminus assumed; SMILES CNC(=N)NCCC[C@H](NC(=O)[C@H](CC(C)C)NC(=O)NNC(=O)[C@H](Cc1ccccc1)NC(=O)[C@H](CO)NC(=O)[C@H](CC(N)=O)NC(=O)[C@H](Cc1ccccc1)NC(=O)[C@H](N)Cc1ccc(O)cc1)C(=O)N[C@@H](Cc1ccccc1)C(N)=O, also called Compound No. 254) [des(1)-[D-Tyr2,Phe3,AzaGly7,Arg(Me)9]MS10]	1 x Metastin (1-54)
[dY]WNSF[azaGly]L[Arg(Me)]F-NH2 (N-terminus assumed; SMILES CNC(=N)NCCC[C@H](NC(=O)[C@H](CC(C)C)NC(=O)NNC(=O)[C@H](Cc1ccccc1)NC(=O)[C@H](CO)NC(=O)[C@H](CC(N)=O)NC(=O)[C@H](Cc1c[nH]c2ccccc12)NC(=O)[C@H](N)Cc1ccc(O)cc1)C(=O)N[C@@H](Cc1ccccc1)C(N)=O, also called Compound No. 222) [des(1)-[D-Tyr2,AzaGly7,Arg(Me)9]MS10]	10 x Metastin (1-54)
[dY]NWTSFGL[Arg(Me)]F-NH2 (also called Compound No. 208) [[D-Tyr1,Thr4,Arg(Me)9]MS10]	1 x Metastin (1-54)
[dY]NWQSFGL[Arg(Me)]F-NH2 (N-terminus assumed; SMILES CNC(=N)NCCC[C@H](NC(=O)[C@H](CC(C)C)NC(=O)CNC(=O)[C@H](Cc1ccccc1)NC(=O)[C@H](CO)NC(=O)[C@H](CCC(N)=O)NC(=O)[C@H](Cc1c[nH]c2ccccc12)NC(=O)[C@H](CC(N)=O)NC(=O)[C@H](N)Cc1ccc(O)cc1)C(=O)N[C@@H](Cc1ccccc1)C(N)=O) [[D-Tyr1,Gln4,Arg(Me)9]MS10]	0.5 x Metastin (1-54)
[dY]NWNSF[azaGly]L[Arg(Me)]F-NH2 (also called Compound No. 232) [[D-Tyr1,AzaGly7,Arg(Me)9]MS10]	3 x Metastin (1-54)

Please fill in: Ca ion level-increasing activity (FLIPR) reported for [dY]NINSF[azaGly]L[Arg(Me)]F-NH2 (N-terminus assumed; SMILES CC[C@H](C)[C@H](NC(=O)[C@H](CC(N)=O)NC(=O)[C@H](N)Cc1ccc(O)cc1)C(=O)N[C@@H](CC(N)=O)C(=O)N[C@@H](CO)C(=O)N[C@@H](Cc1ccccc1)C(=O)NNC(=O)N[C@@H](CC(C)C)C(=O)N[C@@H](CCCNC(=N)NC)C(=O)N[C@@H](Cc1ccccc1)C(N)=O, also called Compound No. 233) [[D-Tyr1,Ile3,AzaGly7,Arg(Me)9]MS10] = 1 x Metastin (1-54)

// [dY]NWNSFGL[Arg(n-Pr)]F-NH2 [[D-Tyr1,Arg(n-Pr)9]MS10] : Ca ion level-increasing activity (FLIPR) value = 0.5 x Metastin (1-54)

Recorded Ca ion level-increasing activity (FLIPR) (binder [dY]NWNSFAL[Arg(Me)]F-NH2 (N-terminus assumed; SMILES CNC(=N)NCCC[C@H](NC(=O)[C@H](CC(C)C)NC(=O)[C@H](C)NC(=O)[C@H](Cc1ccccc1)NC(=O)[C@H](CO)NC(=O)[C@H](CC(N)=O)NC(=O)[C@H](Cc1c[nH]c2ccccc12)NC(=O)[C@H](CC(N)=O)NC(=O)[C@H](N)Cc1ccc(O)cc1)C(=O)N[C@@H](Cc1ccccc1)C(N)=O, also called Compound No. 204) [[D-Tyr1,Ala7,Arg(Me)9]MS10] ): 5 x Metastin (1-54)
